test: physchem; assay type: physicochemical; details: pH 1, water
Counter-ions that a name gives are not always drawn.
MEASURED ENDPOINT: solubility

GET /values?readout=solubility&item= CN(C)CCN1C(=O)c2cccc3cc(N)cc(c23)C1=O [amonafide dihydrochloride] > 250 mg/mL
